- System: Echinochloa crus-galli
- ASSAY OVERVIEW: Herbicidal activity against barnyard grass assessed as inhibition of stalk growth at 100 mg/L relative to control
- Type: functional
Measured inhibition at 100 µg/mL of individual entries

- COMPOUND: "CCCOC(=O)C(C)Oc1ccc(Oc2nc3c(c(S(C)(=O)=O)nn3-c3ccccc3)c(=O)n2C(=O)Nc2ccccc2Cl)cc1 (stereo unspecified)"
  RESULT UNIT: "%"
  inhibition at 100 µg/mL: 23.3
- COMPOUND: "COC(=O)C(C)Oc1ccc(Oc2nc3c(c(S(C)(=O)=O)nn3-c3ccccc3)c(=O)n2C(=O)Nc2ccccc2)cc1 (stereo unspecified)"
  RESULT UNIT: "%"
  inhibition at 100 µg/mL: 31.6
- COMPOUND: "CCOC(=O)C(C)Oc1ccc(Oc2nc3c(c(SC)nn3-c3ccccc3)c(=O)n2C(=O)Nc2cccc(C)c2)cc1 (stereo unspecified)"
  RESULT UNIT: "%"
  inhibition at 100 µg/mL: 0
- COMPOUND: "CCOC(=O)C(C)Oc1ccc(Oc2nc3c(c(S(=O)(=O)Cc4ccccc4)nn3-c3ccccc3)c(=O)n2C(=O)Nc2cccc(C)c2)cc1 (stereo unspecified)"
  RESULT UNIT: "%"
  inhibition at 100 µg/mL: 16.7
- COMPOUND: "CCOC(=O)COc1ccc(Oc2nc3c(c(SCc4ccccc4)nn3-c3ccccc3)c(=O)n2C(=O)Nc2cccc(C)c2)cc1"
  RESULT UNIT: "%"
  inhibition at 100 µg/mL: -10.5
- COMPOUND: "COC(=O)C(C)Oc1ccc(Oc2nc3c(c(SC)nn3-c3ccccc3)c(=O)n2C(=O)Nc2ccccc2)cc1 (stereo unspecified)"
  RESULT UNIT: "%"
  inhibition at 100 µg/mL: 68.9
- COMPOUND: "CCOC(=O)C(C)Oc1ccc(Oc2nc3c(c(S(C)(=O)=O)nn3-c3ccccc3)c(=O)n2C(=O)Nc2cccc(C)c2)cc1 (stereo unspecified)"
  RESULT UNIT: "%"
  inhibition at 100 µg/mL: 51.7
- COMPOUND: "COC(=O)C(C)Oc1ccc(Oc2nc3c(c(S(C)(=O)=O)nn3-c3ccccc3)c(=O)n2C(=O)Nc2ccccc2F)cc1 (stereo unspecified)"
  RESULT UNIT: "%"
  inhibition at 100 µg/mL: -21
- COMPOUND: "CCOC(=O)C(C)Oc1ccc(Oc2nc3c(c(SCc4ccccc4)nn3-c3ccccc3)c(=O)n2C(=O)Nc2cccc(C)c2)cc1 (stereo unspecified)"
  RESULT UNIT: "%"
  inhibition at 100 µg/mL: -6.4
- COMPOUND: "CCCOC(=O)C(C)Oc1ccc(Oc2nc3c(c(SC)nn3-c3ccccc3)c(=O)n2C(=O)Nc2ccccc2Cl)cc1 (stereo unspecified)"
  RESULT UNIT: "%"
  inhibition at 100 µg/mL: 25.8
- COMPOUND: "CCOC(=O)C(C)Oc1ccc(Oc2nc3c(c(SC)nn3-c3ccccc3)c(=O)n2C(=O)Nc2ccccc2)cc1 (stereo unspecified)"
  RESULT UNIT: "%"
  inhibition at 100 µg/mL: 32.3
